Data provenance is BindingDB's records for doi:10.1021/jm020056z.

biological target: Cyclin-dependent kinase 1/G2/mitotic-specific cyclin-B (Marthasterias glacialis, UniProt P15206+Q9DGD3); test: Kinase Inhibition Assay
Sequence (Q9DGD3 whole entry): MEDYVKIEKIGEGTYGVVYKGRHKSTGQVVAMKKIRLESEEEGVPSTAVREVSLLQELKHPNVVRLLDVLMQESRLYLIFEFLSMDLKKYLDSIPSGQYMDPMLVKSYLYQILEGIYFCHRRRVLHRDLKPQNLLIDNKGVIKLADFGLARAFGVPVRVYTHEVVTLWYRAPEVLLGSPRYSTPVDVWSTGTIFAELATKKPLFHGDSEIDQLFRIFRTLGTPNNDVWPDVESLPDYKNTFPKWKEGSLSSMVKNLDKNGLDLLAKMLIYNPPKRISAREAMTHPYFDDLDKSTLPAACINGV
Sequence (P15206 whole entry): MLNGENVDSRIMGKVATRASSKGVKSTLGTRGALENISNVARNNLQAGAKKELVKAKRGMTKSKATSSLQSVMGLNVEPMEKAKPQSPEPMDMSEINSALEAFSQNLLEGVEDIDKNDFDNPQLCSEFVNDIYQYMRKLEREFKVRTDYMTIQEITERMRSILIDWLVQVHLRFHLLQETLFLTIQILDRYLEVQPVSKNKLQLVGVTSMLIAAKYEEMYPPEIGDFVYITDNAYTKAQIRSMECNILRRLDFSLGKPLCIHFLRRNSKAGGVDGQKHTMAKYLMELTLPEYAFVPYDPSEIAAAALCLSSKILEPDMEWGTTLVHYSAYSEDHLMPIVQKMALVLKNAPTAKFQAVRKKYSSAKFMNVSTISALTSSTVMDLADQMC
assay.metric: IC50
# do not omit the unit; it follows the number

# IC50 (molecule: `CCOC(C)(COc1nc(N)nc2[nH]cnc12)OCC` ) is 36 µM

* * *

biological target: Cyclin-A2 [171-432]/Cyclin-dependent kinase 2 (Homo sapiens, UniProt P24941); construct: 171-432; assay: Kinase Inhibition Assay
assay.metric: IC50 (µM)
Kindly answer with a numeric value in µM, unit omitted.

# IC50 (compound: Nc1nc(OCC2CC=CCC2)c2[nH]cnc2n1 (configuration not stated) ) is 16

# IC50 (compound: `CCOC(C)(COc1nc(N)nc2[nH]cnc12)OCC` ) is 33
